# System: Staphylococcus aureus
# assay overview: Antibacterial activity against methicillin-resistant Staphylococcus aureus ATCC 33591 after 16 to 20 hrs by two fold serial dilution method
# Format: functional
readout: MIC (µg/mL)

- entry smiles: "N=C(N)NCCC[C@H](N)C(=O)N[C@@H](Cc1ccccc1)CN(CC(=O)NCc1cccc2ccccc12)C(=O)c1ccc2ccccc2c1"
  reported relation: "="
  val: 25
- entry smiles: "NCCCC[C@H](N)C(=O)N[C@@H](Cc1ccccc1)CN(CC(=O)NCc1ccc(C(F)(F)F)cc1)C(=O)CC12CC3CC(CC(C3)C1)C2"
  reported relation: "="
  val: 6.25
- entry smiles: "NCCCC[C@H](N)C(=O)N[C@@H](Cc1ccccc1)CN(CC(=O)NCc1cccc2ccccc12)C(=O)CC12CC3CC(CC(C3)C1)C2"
  reported relation: "="
  val: 6.25
- entry smiles: "NCCCC[C@@H](CN(CC(=O)NCc1cccc2ccccc12)C(=O)c1ccc2ccccc2c1)NC(=O)[C@@H](N)CCCCN"
  reported relation: ">"
  val: 50
- entry smiles: "NCCCC[C@@H](CN(CC(=O)NCc1cccc2ccccc12)C(=O)CC12CC3CC(CC(C3)C1)C2)NC(=O)[C@@H](N)CCCCN"
  reported relation: ">"
  val: 50
- entry smiles: "NCCCC[C@H](NC(=O)[C@@H](N)CCCCN)C(=O)N[C@@H](Cc1ccccc1)CN(CC(=O)NCC12CC3CC(CC(C3)C1)C2)C(=O)CC12CC3CC(CC(C3)C1)C2"
  reported relation: "="
  val: 1.56

====

# Tested on: Klebsiella pneumoniae
# assay overview: Antibacterial activity against Klebsiella pneumoniae ATCC 13383 after 16 to 20 hrs by two fold serial dilution method
# Format: functional
Overview of recorded MIC for various compounds
readout: MIC

- compound: "NCCCC[C@H](NC(=O)[C@@H](N)CCCCN)C(=O)N[C@@H](Cc1ccccc1)CN(CC(=O)NCC12CC3CC(CC(C3)C1)C2)C(=O)CC12CC3CC(CC(C3)C1)C2"
  val: "> 25 µg/mL"
- compound: "NCCCC[C@@H](CN(CC(=O)NCc1cccc2ccccc12)C(=O)c1ccc2ccccc2c1)NC(=O)[C@@H](N)CCCCN"
  val: "> 50 µg/mL"
- compound: "CCCCCCCCCC(=O)N[C@@H](Cc1c[nH]c2ccccc12)C(=O)N[C@@H](CC(N)=O)C(=O)N[C@@H](CC(=O)O)C(=O)N[C@@H]1C(=O)NCC(=O)N[C@@H](CCCN)C(=O)N[C@@H](CC(=O)O)C(=O)N[C@H](C)C(=O)N[C@@H](CC(=O)O)C(=O)NCC(=O)N[C@H](CO)C(=O)N[C@@H]([C@H](C)CC(=O)O)C(=O)N[C@@H](CC(=O)c2ccccc2N)C(=O)O[C@@H]1C [DAPTOMYCIN]"
  val: "> 50 µg/mL"
- compound: "NCCCC[C@H](NC(=O)[C@@H](N)CCCN)C(=O)N[C@@H](Cc1ccccc1)CN(CC(=O)NCC12CC3CC(CC(C3)C1)C2)C(=O)CC12CC3CC(CC(C3)C1)C2"
  val: "> 25 µg/mL"
- compound: "N=C(N)NCCC[C@H](N)C(=O)N[C@@H](CCCCN)C(=O)N[C@@H](Cc1ccccc1)CN(CC(=O)NCC12CC3CC(CC(C3)C1)C2)C(=O)CC12CC3CC(CC(C3)C1)C2"
  val: "> 25 µg/mL"
